- Target: pY705-STAT3 in PBMC (Homo sapiens, UniProt P40763)
- Construct: Cryopreserved Peripheral Blood Mononuclear Cells (PBMC) are from AllCells; host or cells: cryopreserved PBMC
- Sequence (P40763 whole entry): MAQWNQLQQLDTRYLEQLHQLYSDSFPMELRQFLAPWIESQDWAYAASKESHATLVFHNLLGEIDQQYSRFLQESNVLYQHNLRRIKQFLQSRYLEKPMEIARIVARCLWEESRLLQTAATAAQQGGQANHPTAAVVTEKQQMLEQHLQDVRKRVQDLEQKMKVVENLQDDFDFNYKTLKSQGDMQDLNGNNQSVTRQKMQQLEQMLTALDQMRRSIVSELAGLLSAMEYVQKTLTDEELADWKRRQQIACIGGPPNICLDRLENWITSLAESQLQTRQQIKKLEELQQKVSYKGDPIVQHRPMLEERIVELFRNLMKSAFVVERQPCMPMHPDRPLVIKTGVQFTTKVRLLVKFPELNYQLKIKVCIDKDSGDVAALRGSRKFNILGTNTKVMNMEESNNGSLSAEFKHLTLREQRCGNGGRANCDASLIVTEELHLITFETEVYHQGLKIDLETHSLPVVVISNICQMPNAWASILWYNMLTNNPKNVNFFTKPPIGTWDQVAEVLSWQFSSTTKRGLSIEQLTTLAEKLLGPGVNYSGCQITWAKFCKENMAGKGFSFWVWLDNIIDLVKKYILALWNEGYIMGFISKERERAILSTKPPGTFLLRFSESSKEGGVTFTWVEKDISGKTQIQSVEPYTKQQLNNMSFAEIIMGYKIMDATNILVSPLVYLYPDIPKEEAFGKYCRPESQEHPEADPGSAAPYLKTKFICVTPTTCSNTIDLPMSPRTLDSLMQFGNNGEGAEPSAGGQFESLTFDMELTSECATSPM
- Protocol description: MSD-pSTAT-PBMC Assay (pSTAT3, IL-6 stimulated)
- Format: cell-based
- Condition description: PBMC, compound 3 hrs, then 10 ng/mL IL-6 for 10 min; Table 115; read-out: STAT3
Below, each entry is listed with its recorded IC50.

Compound	IC50
COc1ccncc1C1CN(C(=O)[C@@H]2CC[C@@H]3CCC[C@H](NC(=O)c4cc5cc([C@@H](F)[P@@](=O)(N[C@@H](C)C(=O)OC(C)C)Oc6ccccc6)ccc5s4)C(=O)N32)C1 (single isomer, unassigned) [Compound 956]	< 100 nM
CCCOC(=O)[C@H](C)NP(=O)(Oc1ccccc1)[C@@H](F)c1ccc2sc(C(=O)N[C@H]3CCC[C@H]4CC[C@@H](C(=O)N5CC(c6cncc(F)c6OC)C5)N4C3=O)cc2c1 (stereo partly drawn)	100 to 1000 nM
CCCOC(=O)[C@H](C)NP(=O)(Oc1ccccc1)C(F)(F)c1ccc2ccc(C(=O)N[C@H]3CCCC[C@H]4CC[C@@H](C(=O)N5C[C@H](c6cc[nH]c(=O)c6)CC56CC6)N4C3=O)cc2c1 (stereo partly drawn)	> 3000 nM
Cn1cnnc1C1CN(C(=O)[C@@H]2CC[C@@H]3CCC[C@H](NC(=O)c4cc5cc(C(F)(F)P(=O)(OCCSC(=O)C(C)(C)C)OCCSC(=O)C(C)(C)C)ccc5s4)C(=O)N32)C1	< 100 nM
CCCOC(=O)[C@H](C)NP(=O)(Oc1ccccc1)[C@H](F)c1ccc2sc(C(=O)N[C@H]3CCC[C@H]4CC[C@@H](C(=O)N5CC(c6cnccc6N6CC(OC)C6)C5)N4C3=O)cc2c1 (stereo partly drawn)	< 100 nM
COc1ccncc1C1CN(C(=O)[C@@H]2CC[C@@H]3CCC[C@H](NC(=O)c4cc5cc([C@H](F)[P@](=O)(N[C@@H](C)C(=O)OCC(C)(C)C)Oc6ccccc6)ccc5s4)C(=O)N32)C1 (single isomer, unassigned)	100 to 1000 nM
CCCOC(=O)[C@H](C)NP(=O)(Oc1ccccc1)[C@H](F)c1ccc2sc(C(=O)N[C@H]3C[C@@H](C)C[C@H]4CC[C@@H](C(=O)N5CC(c6cncnc6N6CCC6)C5)N4C3=O)cc2c1 (stereo partly drawn)	< 100 nM
CC(C)CC(=O)SCCOP(=O)(OCOC(=O)O[C@H]1CCOC1)C(F)(F)c1ccc2sc(C(=O)N[C@H]3CCC[C@H]4CC[C@@H](C(=O)N5CC(c6ncccn6)C5)N4C3=O)cc2c1 (stereo partly drawn)	< 100 nM
CCCOC(=O)[C@H](C)NP(=O)(Cc1ccc2sc(C(=O)N[C@H]3CCC[C@H]4CC[C@@H](C(=O)N5CC(c6cnc(OC)cc6F)C5)N4C3=O)cc2c1)Oc1ccccc1 (stereo partly drawn)	100 to 1000 nM

###

Recorded IC50 for the following compounds
- Target: Recombinant STAT6 protein (STAT6 (W123-T658)) (Homo sapiens)
- Construct: Recombinant STAT6 protein (STAT6 (W123-T658))
- Sequence (P42226 123-658): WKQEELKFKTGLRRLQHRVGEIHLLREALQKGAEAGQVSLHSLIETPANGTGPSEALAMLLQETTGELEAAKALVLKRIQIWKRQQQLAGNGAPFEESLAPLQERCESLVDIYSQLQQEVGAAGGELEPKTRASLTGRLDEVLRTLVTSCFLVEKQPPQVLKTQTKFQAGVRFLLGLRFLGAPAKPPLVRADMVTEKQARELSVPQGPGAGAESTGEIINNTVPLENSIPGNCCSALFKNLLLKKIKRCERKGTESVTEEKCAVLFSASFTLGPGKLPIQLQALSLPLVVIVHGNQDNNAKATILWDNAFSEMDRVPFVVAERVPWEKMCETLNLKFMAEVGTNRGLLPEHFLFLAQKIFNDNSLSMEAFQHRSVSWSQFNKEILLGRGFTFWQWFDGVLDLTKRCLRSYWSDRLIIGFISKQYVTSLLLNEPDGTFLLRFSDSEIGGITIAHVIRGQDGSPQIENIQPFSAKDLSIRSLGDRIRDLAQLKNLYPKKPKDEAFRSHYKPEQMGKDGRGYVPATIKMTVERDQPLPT
- Protocol description: STAT6 Fluorescence Polarization (FP) Assay
- Type: binding
- Condition description: STAT6 (W123-T658) 250 nM, probe 5-FAM-Ap[…]-NH2 2 nM, 45-minute incubation; read-out: STAT6 (FP assay IC50 class)
Quantity measured: IC50

                                   compound       result
0  Cc1cccnc1N1CC[C@@H](NC(=O)[C@@H]2CC[C@@H]3CCCC[C@H](NC(=O)c4cc5cc(C(F)P(=O)(O)O)ccc5s4)C(=O)N32)C1 (stereo partly drawn)   3 to 30 µM
1  O=C(N[C@H]1CCCC[C@H]2CC[C@@H](C(=O)N3CC(c4ccccc4)CC34CC4)N2C1=O)c1cnc2ccc(CP(=O)(O)O)cc2c1 (stereo partly drawn)  0.3 to 3 µM
2  CS(=O)(=O)CC1CN(C(=O)[C@@H]2CC[C@@H]3CCC[C@H](NC(=O)c4cc5cc(C(F)P(=O)(O)O)ccc5s4)C(=O)N32)C1 (stereo partly drawn)   3 to 30 µM

###

- Target: Recombinant STAT3 protein (STAT3 (G127-I722)) (Homo sapiens, UniProt P40763)
- Construct: Recombinant STAT3 protein (STAT3 (G127-I722))
- Protocol description: STAT3 Fluorescence Polarization (FP) Assay
- Format: binding
- Condition description: STAT3 (G127-I722) 25 nM, probe 5-FAM-GpYLPQTV-NH2 2 nM, 45-minute incubation; read-out: STAT3 (FP assay IC50 class)

Compound	IC50
O=C(N[C@H]1CCCC[C@H]2CC[C@@H](C(=O)N3CC(c4nc5ccccc5o4)C3)N2C1=O)c1cc2cc(C(F)(F)P(=O)(O)O)ccc2s1	100 to 1000 nM
O=C(N[C@H]1CCCC[C@H]2CC[C@@H](C(=O)NC3CN(C(=O)OC4CC4)C3)N2C1=O)c1cc2cc(C(F)P(=O)(O)O)ccc2s1 (stereo partly drawn)	1000 to 10000 nM
N#C[C@@H]1[C@@H](c2ccccc2)CN(C(=O)[C@@H]2CC[C@@H]3CCC[C@H](NC(=O)c4cc5cc([C@@H](F)P(=O)(O)O)ccc5s4)C(=O)N32)C12CC2 (single isomer, unassigned)	1000 to 10000 nM
O=C(N[C@H]1CCC[C@H]2CC[C@@H](C(=O)N3CCn4cncc4C3)N2C1=O)c1cc2cc(C(F)(F)P(=O)(O)O)ccc2s1	100 to 1000 nM
N#CC1CN(c2ccncc2C2CN(C(=O)[C@@H]3CC[C@@H]4CCC[C@H](NC(=O)c5cc6cc(CP(=O)(O)O)ccc6s5)C(=O)N43)C2)C1	< 100 nM
Cn1ccc([C@@H]2CN(C(=O)[C@@H]3CC[C@@H]4CCCC[C@H](NC(=O)c5cc6cc(C(F)P(=O)(O)O)ccc6s5)C(=O)N43)C[C@H]2C#N)cc1=O (single isomer, unassigned) [Compound 228]	1000 to 10000 nM
C[C@H]1C[C@H]2CC[C@@H](C(=O)N3CC(c4cncnc4N4CCC4)C3)N2C(=O)[C@@H](NC(=O)c2cc3cc(CP(=O)(O)O)ccc3s2)C1	< 100 nM
Cc1nnc(C2CN(C(=O)[C@@H]3CC[C@@H]4CCC[C@H](NC(=O)c5cc6cc(C(F)(F)P(=O)(O)O)ccc6s5)C(=O)N43)CCO2)o1 (stereo partly drawn)	100 to 1000 nM
O=C(N[C@@H]1C(=O)N2[C@@H](CCC[C@H]1C1CC1)CC[C@H]2C(=O)N1CC(c2cccnc2)C1)c1cc2cc(C(F)(F)P(=O)(O)O)ccc2s1	< 100 nM
COC1(c2cncnc2)CN(C(=O)[C@@H]2CC[C@@H]3CCC[C@H](NC(=O)c4cc5cc(C(F)(F)P(=O)(O)O)ccc5s4)C(=O)N32)C1	100 to 1000 nM
O=C(N[C@H]1CCC[C@H]2CC[C@@H](C(=O)N3CCC(c4cccnc4)C3)N2C1=O)c1cc2cc(CP(=O)(O)O)ccc2s1 (stereo partly drawn)	1000 to 10000 nM
CC(C)Oc1ccncc1C1CN(C(=O)[C@@H]2CC[C@@H]3CCC[C@H](NC(=O)c4cc5cc(C(F)P(=O)(O)O)ccc5s4)C(=O)N32)C1 (stereo partly drawn)	< 100 nM
CCOc1c(F)cncc1C1CN(C(=O)[C@@H]2CC[C@@H]3CCC[C@H](NC(=O)c4cc5cc([C@@H](F)P(=O)(O)O)ccc5s4)C(=O)N32)C1	1000 to 10000 nM
CN(Cc1cc(=O)[nH]c2ccccc12)C(=O)[C@@H]1CC[C@@H]2CCCC[C@H](NC(=O)c3cc4cc(C(F)(F)P(=O)(O)O)ccc4s3)C(=O)N21	100 to 1000 nM
O=C(N[C@H]1CCC[C@H]2CC[C@@H](C(=O)N3CC(c4ncccc4F)C3)N2C1=O)c1cc2cc(C(F)P(=O)(O)O)ccc2s1 (stereo partly drawn)	100 to 1000 nM
C[C@@H]1COCCN1c1ccncc1C1CN(C(=O)[C@@H]2CC[C@@H]3CCC[C@H](NC(=O)c4cc5cc(CP(=O)(O)O)ccc5s4)C(=O)N32)C1	100 to 1000 nM
COc1c(C2CN(C(=O)[C@@H]3CC[C@@H]4CCC[C@H](NC(=O)c5cc6cc(C(F)P(=O)(O)O)ccc6s5)C(=O)N43)C2)ccnc1F (stereo partly drawn)	< 100 nM
O=C(N[C@H]1CCC[C@H]2CC[C@@H](C(=O)N3CC(c4cnccc4N4CCC4)C3)N2C1=O)c1cc2cc([C@H](F)P(=O)(O)O)ccc2s1 (single isomer, unassigned)	< 100 nM
CN(C)c1ccncc1C1CN(C(=O)[C@@H]2CC[C@@H]3CCC[C@H](NC(=O)c4cc5cc([C@@H](F)P(=O)(O)O)ccc5s4)C(=O)N32)C1 (single isomer, unassigned)	< 100 nM
O=C(N[C@H]1CCC[C@H]2CC[C@@H](C(=O)N3CC(c4cncnc4N4CCOCC4)C3)N2C1=O)c1cc2cc([C@@H](F)P(=O)(O)O)ccc2s1 (single isomer, unassigned)	< 100 nM
O=C(N[C@H]1CCCC[C@H]2CC[C@@H](C(=O)N3CC(c4ccccc4)CC34CC4)N2C1=O)c1ccc2ccc(C(F)(F)P(=O)(O)O)cc2c1 (stereo partly drawn)	1000 to 10000 nM
